tested_target: Fatty-acid amide hydrolase 1 (Rattus norvegicus)
Sequence (P97612 whole entry): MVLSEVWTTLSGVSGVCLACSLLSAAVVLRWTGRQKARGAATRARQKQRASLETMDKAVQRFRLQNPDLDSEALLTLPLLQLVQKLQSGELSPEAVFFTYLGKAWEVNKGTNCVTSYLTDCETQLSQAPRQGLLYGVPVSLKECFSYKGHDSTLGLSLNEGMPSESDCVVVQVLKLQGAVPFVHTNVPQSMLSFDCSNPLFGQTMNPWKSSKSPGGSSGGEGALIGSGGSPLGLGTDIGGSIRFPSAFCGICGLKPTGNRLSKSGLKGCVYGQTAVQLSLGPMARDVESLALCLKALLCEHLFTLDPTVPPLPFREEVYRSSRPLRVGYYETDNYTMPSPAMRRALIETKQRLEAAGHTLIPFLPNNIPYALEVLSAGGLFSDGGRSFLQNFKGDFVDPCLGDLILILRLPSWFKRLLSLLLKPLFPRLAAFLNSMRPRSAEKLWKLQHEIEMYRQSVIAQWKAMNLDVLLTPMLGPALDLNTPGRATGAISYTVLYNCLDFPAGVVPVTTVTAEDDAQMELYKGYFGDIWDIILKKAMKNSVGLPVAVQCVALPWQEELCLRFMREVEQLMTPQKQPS
experimental_protocol: Noncompetitive inhibition of rat brain FAAH using [3H]AEA as substrate after 10 mins by Dixon plot analysis
pKi: −log10 of the molar value.
measure: pKi

1) CC(C(=O)Nc1ncccc1Cl)c1ccc(Nc2ccnc(C(F)(F)F)c2)cc1 (stereo unspecified) : 6.96

* * *

tested_target: Fatty-acid amide hydrolase 1 (Homo sapiens)
Sequence (O00519 whole entry): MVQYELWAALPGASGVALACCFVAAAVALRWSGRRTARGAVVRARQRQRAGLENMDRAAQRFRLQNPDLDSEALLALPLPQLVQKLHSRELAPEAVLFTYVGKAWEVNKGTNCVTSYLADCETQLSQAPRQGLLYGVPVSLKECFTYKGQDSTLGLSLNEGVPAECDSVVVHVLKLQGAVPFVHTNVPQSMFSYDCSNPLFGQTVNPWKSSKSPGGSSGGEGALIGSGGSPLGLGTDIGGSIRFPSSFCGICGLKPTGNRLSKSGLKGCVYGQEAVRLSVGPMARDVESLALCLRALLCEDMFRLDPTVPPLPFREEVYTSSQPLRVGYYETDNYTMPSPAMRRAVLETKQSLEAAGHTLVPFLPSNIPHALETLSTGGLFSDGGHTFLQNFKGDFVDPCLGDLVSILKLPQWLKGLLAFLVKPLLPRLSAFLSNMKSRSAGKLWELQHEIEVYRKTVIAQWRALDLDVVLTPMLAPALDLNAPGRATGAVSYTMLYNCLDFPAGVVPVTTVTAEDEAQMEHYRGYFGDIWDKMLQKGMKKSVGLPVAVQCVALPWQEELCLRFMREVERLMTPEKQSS
experimental_protocol: Inhibition of FAAH (unknown origin) expressed in human HeLa cells transfected with empty vector using [3H]AEA as substrate after 2 hrs by liquid scintillation counting analysis
Format: cell-based
As shown below, each of these compounds has a reported IC50 value.
measure: IC50

1. Cc1cccnc1NC(=O)C(C)c1ccc(Nc2ccnc(C(F)(F)F)c2)cc1 (configuration not stated) : 2500 nM
2. Cc1cccnc1NC(=O)[C@H](C)c1ccc(-c2ccccc2)c(F)c1 : 650 to 3000 nM

* * *

tested_target: Prostaglandin G/H synthase 2 (Homo sapiens) (UniProt P35354)
Sequence (P35354 whole entry): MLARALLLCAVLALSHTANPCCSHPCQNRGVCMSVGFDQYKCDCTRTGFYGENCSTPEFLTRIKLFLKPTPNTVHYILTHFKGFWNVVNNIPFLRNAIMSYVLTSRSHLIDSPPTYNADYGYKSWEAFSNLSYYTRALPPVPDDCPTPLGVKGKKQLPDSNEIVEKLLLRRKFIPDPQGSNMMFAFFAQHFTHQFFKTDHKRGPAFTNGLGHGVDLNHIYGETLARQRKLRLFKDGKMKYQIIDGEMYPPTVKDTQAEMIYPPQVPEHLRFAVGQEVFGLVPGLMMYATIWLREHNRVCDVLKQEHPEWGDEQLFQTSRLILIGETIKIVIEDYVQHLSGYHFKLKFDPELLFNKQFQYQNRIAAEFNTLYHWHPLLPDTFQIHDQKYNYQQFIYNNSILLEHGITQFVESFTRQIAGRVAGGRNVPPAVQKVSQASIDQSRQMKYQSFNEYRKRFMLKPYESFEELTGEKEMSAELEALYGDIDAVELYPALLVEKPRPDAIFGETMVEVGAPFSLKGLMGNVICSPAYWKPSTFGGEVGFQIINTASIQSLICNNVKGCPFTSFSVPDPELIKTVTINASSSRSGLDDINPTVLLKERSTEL
experimental_protocol: Inhibition of recombinant human COX2 using arachidonic acid/2-AG as substrate after 5 mins
Active and inactive are the calls of the source. The rule behind the calls is not given here.
Outcome codes: active, inactive

1) Cc1cccnc1NC(=O)C(C)c1ccc(CC(C)C)cc1 (centres undefined) : active
2) Cc1cccnc1NC(=O)C(C)c1ccc(Nc2ccnc(C(F)(F)F)c2)cc1 (centres undefined) : inactive
3) CC(C(=O)Nc1ncccc1Cl)c1ccc(Nc2ccnc(C(F)(F)F)c2)cc1 (centres undefined) : inactive
4) Cc1cccnc1NC(=O)C(C)c1ccc(-c2ccccc2)c(F)c1 (centres undefined) : active
